All values here come from paper PMC6792352.

Test: in vitro
Conditions: rat, gh3-tre-luc cells, AC50 (uM) modified / 1000, Tox21_110001=Tox21_200854; viability, 1 nM T3 present, 24 h
QUANTITY: CC50 at 24 h

In: Need CC50 at 24 h of C[C@]1(O)CC[C@H]2[C@@H]3CCC4=CC(=O)CC[C@]4(C)[C@@]3(F)[C@@H](O)C[C@@]21C [Fluoxymestrone] , thanks.
Out: > 90 µM

###

Assay: in vitro
Details: rat, gh3-tre-luc cells, AC50 (uM) modified / 1000, Tox21_110001=Tox21_300175; viability, 1 nM T3 present, 24 h
QUANTITY: CC50 at 24 h

In: Which CC50 at 24 h is reported for this molecule? CCOP(=S)(OCC)SCSP(=S)(OCC)OCC [Ethion]
Out: > 90 µM

###

Test: in vitro
Settings: rat
Where a name gives a salt, the structure may show the parent alone.
QUANTITY: log10 of AC50 at 24 h (log10 of the value in µM)
Values reflect log10 of reported AC50 at 24 h (µM).

In: // returns reported log10 of AC50 at 24 h for input CNCC[C@H](Oc1cccc2ccccc12)c1cccs1 [Duloxetine hydrochloride, reference compound]
Out: 0.76

In: I am curious: what log10 of AC50 at 24 h value has been reported for CCOC(=O)C1=C(COCCN)NC(C)=C(C(=O)OC)C1c1ccccc1Cl (stereo not shown) [Amlodipine besylate, reference compound] ?
Out: 0.33

In: Look up log10 of AC50 at 24 h for this compound: C=C(c1ccc(C(=O)O)cc1)c1cc2c(cc1C)C(C)(C)CCC2(C)C [Bexarotene, reference compound]
Out: 1.02

In: Name the recorded log10 of AC50 at 24 h for N[C@@H](Cc1cc(I)c(Oc2ccc(O)c(I)c2)c(I)c1)C(=O)O [3,5,3ʹ-Triiodothyronine, reference compound] .
Out: 1.62

In: What value of measured log10 of AC50 at 24 h is listed for CC[C@H]1OC(=O)C[C@@H](O)[C@H](C)[C@@H](O[C@@H]2O[C@H](C)C[C@H](N(C)C)[C@H]2O)[C@@H](CC=O)C[C@@H](C)C(=O)/C=C/[C@]2(C)O[C@H]2[C@@H]1C ?
Out: 1.39

In: Which log10 of AC50 at 24 h value is on record for CC(C)C[C@H](NC(=O)[C@H](CCc1ccccc1)NC(=O)CN1CCOCC1)C(=O)N[C@@H](Cc1ccccc1)C(=O)N[C@@H](CC(C)C)C(=O)[C@@]1(C)CO1 ?
Out: -1.43

In: For the compound COC(=O)C[C@](O)(CCCC(C)(C)O)C(=O)O[C@@H]1C(OC)=C[C@]23CCCN2CCc2cc4c(cc2[C@H]13)OCO4 [Omacetaxine mepesuccinate] , what log10 of AC50 at 24 h is on record?
Out: -1.24

In: Entry under review: COc1cccc2c1C(=O)c1c(O)c3c(c(O)c1C2=O)C[C@@](O)(C(C)=O)C[C@@H]3O[C@H]1C[C@H](N)[C@H](O)[C@H](C)O1 . Reported log10 of AC50 at 24 h?
Out: 0.00

In: Need log10 of AC50 at 24 h of CN(C)c1ccc(/N=N/c2ccccc2C(=O)O)cc1 , thanks.
Out: 1.16
